Where do these numbers come from? They come from ChEMBL document CHEMBL4033632.

pIC50: −log10 of the molar value.
Endpoint: pIC50. System: UniProtKB P22303. Items follow.
Sequence (P22303 whole entry): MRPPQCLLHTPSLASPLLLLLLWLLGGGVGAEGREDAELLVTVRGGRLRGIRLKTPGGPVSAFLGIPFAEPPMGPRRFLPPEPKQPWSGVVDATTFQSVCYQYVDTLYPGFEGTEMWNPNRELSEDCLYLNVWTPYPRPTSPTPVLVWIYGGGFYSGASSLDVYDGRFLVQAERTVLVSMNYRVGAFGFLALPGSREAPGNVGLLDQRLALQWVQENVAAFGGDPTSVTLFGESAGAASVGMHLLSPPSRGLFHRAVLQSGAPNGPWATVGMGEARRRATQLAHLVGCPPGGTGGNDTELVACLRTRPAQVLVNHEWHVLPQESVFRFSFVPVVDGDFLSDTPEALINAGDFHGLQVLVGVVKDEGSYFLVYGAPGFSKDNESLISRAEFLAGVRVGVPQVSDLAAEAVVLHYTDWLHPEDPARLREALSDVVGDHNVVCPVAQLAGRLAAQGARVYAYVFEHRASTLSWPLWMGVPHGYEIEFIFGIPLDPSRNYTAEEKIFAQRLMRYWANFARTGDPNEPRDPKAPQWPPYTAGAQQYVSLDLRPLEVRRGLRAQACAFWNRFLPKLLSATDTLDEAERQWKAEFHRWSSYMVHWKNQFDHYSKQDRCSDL
property name: pIC50

COc1cc2c(cc1OC)C(=O)/C(=C/c1cc[n+](Cc3cccc([N+](=O)[O-])c3)cc1)C2    8.44
COc1cc2c(cc1OC)C(=O)/C(=C/c1cc[n+](Cc3ccc([N+](=O)[O-])cc3)cc1)C2    7.23
COc1cc2c(cc1OC)C(=O)/C(=C/c1cc[n+](Cc3cccc(F)c3)cc1)C2    8.54

* * *

Test: Selectivity index, ratio of IC50 for equine serum BuChE to IC50 for Electric eel AChE
property name: Ratio IC50

COc1cc2c(cc1OC)C(=O)/C(=C/c1cc[n+](Cc3cccc(C)c3)cc1)C2    > 2380
COc1cc2c(cc1OC)C(=O)/C(=C/c1cc[n+](Cc3ccc(F)cc3)cc1)C2    1170
COc1cc2c(cc1OC)C(=O)/C(=C/c1cc[n+](Cc3ccc(C)cc3)cc1)C2    > 391
COc1cc2c(cc1OC)C(=O)/C(=C/c1cc[n+](Cc3cccc(F)c3)cc1)C2    > 2940
COc1cc2c(cc1OC)C(=O)/C(=C/c1cc[n+](Cc3ccccc3C)cc1)C2    > 1960
COc1cc2c(cc1OC)C(=O)/C(=C/c1cc[n+](Cc3ccc(Br)cc3)cc1)C2    > 129
COc1cc2c(cc1OC)C(=O)/C(=C/c1cc[n+](Cc3cccc([N+](=O)[O-])c3)cc1)C2    > 1690
COc1cc2c(cc1OC)C(=O)/C(=C/c1cc[n+](Cc3ccc([N+](=O)[O-])cc3)cc1)C2    > 130
COc1cc2c(cc1OC)C(=O)/C(=C/c1cc[n+](Cc3cccc(Br)c3)cc1)C2    > 2270
COc1cc2c(cc1OC)C(=O)/C(=C/c1cc[n+](Cc3ccccc3)cc1)C2    > 3450
COc1cc2c(cc1OC)C(=O)/C(=C/c1cc[n+](Cc3ccccc3Br)cc1)C2    > 3450
